// data source = patent US4336375A

Tested on: Proteus vulgaris N74-1
Items are presented alongside their recorded MIC.

Compound | Test system | MIC
CCN1CCN(C(=O)NC(C(=O)NC2C(=O)N3C(C(=O)O)=C(CSc4nnc(-n5nc(C)cc5C)n4N)CS[C@H]23)c2ccc(O)cc2)C(=O)C1=O (stereo partly drawn) [Compound VIII] | Proteus vulgaris N74-1 | 128 µg/mL
N[C@@H](C(=O)NC1C(=O)N2C(C(=O)O)=C(CSc3n[nH]c(-n4cccn4)n3)CS[C@H]12)c1ccccc1.O=C(O)C(F)(F)F (stereo partly drawn) [Compound IX] | Proteus vulgaris N74-1 | > 128 µg/mL
CCN1CCN(C(=O)NC(C(=O)NC2C(=O)N3C(C(=O)O)=C(CSc4nnc(-n5cccn5)n4N)CS[C@H]23)c2ccc(O)cc2)C(=O)C1=O (stereo partly drawn) [Compound VII] | Proteus vulgaris N74-1 | 32 µg/mL
CO/N=C(\C(=O)NC1C(=O)N2C(C(=O)O)=C(CSc3nnc(-n4nc(C)cc4-c4ccccc4)n3N)CSC12)c1csc(N)n1 (stereo not drawn) [Compound III] | Proteus vulgaris N74-1 | 1 µg/mL
CO/N=C(\C(=O)NC1C(=O)N2C(C(=O)O)=C(CSc3nnc(-n4nc(C)cc4C)n3N)CSC12)c1csc(N)n1 (stereo not drawn) [Compound II] | Proteus vulgaris N74-1 | 0.5 µg/mL
CO/N=C(\C(=O)NC1C(=O)N2C(C(=O)O)=C(CSc3nnc(-n4cccn4)n3N)CSC12)c1csc(N)n1 (stereo not drawn) [Compound I] | Proteus vulgaris N74-1 | ≤ 0.12 µg/mL

====

// reported MIC for each item listed
Test system: Pseudomonas aeruginosa 12-4-4
Test name: In vitro MIC, agar dilution, Pseudomonas aeruginosa 12-4-4
Format: cell-based
Measurement context: 1244; Pseudomonas aeruginosa 12-4-4; agar dilution, 35° C., 18 hours, nutrient agar; read-out: Minimal Inhibitory Concentration

Compound | MIC
CCN1CCN(C(=O)NC(C(=O)NC2C(=O)N3C(C(=O)O)=C(CSc4nnc(-n5cccn5)n4N)CS[C@H]23)c2ccc(O)cc2)C(=O)C1=O (stereo partly shown) | 16 µg/mL
CC(=O)OCC1=C(C(=O)O)N2C(=O)[C@@H](NC(=O)[C@H](N)c3ccccc3)[C@H]2SC1 [Compound XI, Cephaloglycin, reference compound] | > 128 µg/mL
CO/N=C(\C(=O)NC1C(=O)N2C(C(=O)O)=C(CSc3nnc(-n4nc(C)cc4-c4ccccc4)n3N)CSC12)c1csc(N)n1 (stereo not shown) | 128 µg/mL
Cc1nnc(SCC2=C(C(=O)O)N3C(=O)[C@@H](NC(=O)Cn4cnnn4)[C@H]3SC2)s1 [Compound XII, Cefazolin, reference compound] | > 128 µg/mL
N[C@@H](C(=O)NC1C(=O)N2C(C(=O)O)=C(CSc3n[nH]c(-n4cccn4)n3)CS[C@H]12)c1ccccc1.O=C(O)C(F)(F)F (stereo partly shown) | > 128 µg/mL
Nn1c(SCC2=C(C(=O)O)N3C(=O)C(NC(=O)Cc4cccs4)[C@H]3SC2)nnc1-n1cccn1 (stereo partly shown) | > 128 µg/mL
CO/N=C(\C(=O)NC1C(=O)N2C(C(=O)O)=C(CSc3nnc(-n4cccn4)n3N)CSC12)c1csc(N)n1 (stereo not shown) | 64 µg/mL
CO/N=C(\C(=O)NC1C(=O)N2C(C(=O)O)=C(CSc3n[nH]c(-n4cccn4)n3)CSC12)c1csc(N)n1 (stereo not shown) | 16 µg/mL
CCN1CCN(C(=O)NC(C(=O)NC2C(=O)N3C(C(=O)O)=C(CSc4n[nH]c(-n5cccn5)n4)CS[C@H]23)c2ccc(O)cc2)C(=O)C1=O (stereo partly shown) | 16 µg/mL
CCN1CCN(C(=O)NC(C(=O)NC2C(=O)N3C(C(=O)O)=C(CSc4nnc(-n5nc(C)cc5C)n4N)CS[C@H]23)c2ccc(O)cc2)C(=O)C1=O (stereo partly shown) | 32 µg/mL

====

Here the recorded MIC is given for each entry.
System: Enterobacter cloacae OSU75-2
Test name: In vitro MIC, agar dilution, Enterobacter cloacae OSU75-2
Type: cell-based
Measurement context: OSU752; Enterobacter cloacae OSU75-2; agar dilution, 35° C., 18 hours, nutrient agar; read-out: Minimal Inhibitory Concentration

Compound | MIC
Nn1c(SCC2=C(C(=O)O)N3C(=O)C(NC(=O)Cc4cccs4)[C@H]3SC2)nnc1-n1cccn1 (stereo partly drawn) | > 128 µg/mL
CO/N=C(\C(=O)NC1C(=O)N2C(C(=O)O)=C(CSc3nnc(-n4cccn4)n3N)CSC12)c1csc(N)n1 (stereo not drawn) | 0.5 µg/mL
CCN1CCN(C(=O)NC(C(=O)NC2C(=O)N3C(C(=O)O)=C(CSc4nnc(-n5cccn5)n4N)CS[C@H]23)c2ccc(O)cc2)C(=O)C1=O (stereo partly drawn) | 16 µg/mL
CO/N=C(\C(=O)NC1C(=O)N2C(C(=O)O)=C(CSc3n[nH]c(-n4cccn4)n3)CSC12)c1csc(N)n1 (stereo not drawn) | 4 µg/mL
CO/N=C(\C(=O)NC1C(=O)N2C(C(=O)O)=C(CSc3nnc(-n4nc(C)cc4C)n3N)CSC12)c1csc(N)n1 (stereo not drawn) | 2 µg/mL
N[C@@H](C(=O)NC1C(=O)N2C(C(=O)O)=C(CSc3n[nH]c(-n4cccn4)n3)CS[C@H]12)c1ccccc1.O=C(O)C(F)(F)F (stereo partly drawn) | > 128 µg/mL

====

System: Pseudomonas aeruginosa G236
Test name: In vitro MIC, agar dilution, Pseudomonas aeruginosa G236
Format: cell-based
Measurement context: Pseudomonas aeruginosa G236; agar dilution, 35° C., 18 hours, nutrient agar; read-out: Minimal Inhibitory Concentration

Compound | Result units | Limit operator | MIC
N[C@@H](C(=O)NC1C(=O)N2C(C(=O)O)=C(CSc3n[nH]c(-n4cccn4)n3)CS[C@H]12)c1ccccc1.O=C(O)C(F)(F)F (stereo partly drawn) | µg/mL | > | 128
CCN1CCN(C(=O)NC(C(=O)NC2C(=O)N3C(C(=O)O)=C(CSc4nnc(-n5nc(C)cc5C)n4N)CS[C@H]23)c2ccc(O)cc2)C(=O)C1=O (stereo partly drawn) | µg/mL | = | 128
CCN1CCN(C(=O)NC(C(=O)NC2C(=O)N3C(C(=O)O)=C(CSc4n[nH]c(-n5cccn5)n4)CS[C@H]23)c2ccc(O)cc2)C(=O)C1=O (stereo partly drawn) | µg/mL | = | 32
CO/N=C(\C(=O)NC1C(=O)N2C(C(=O)O)=C(CSc3nnc(-n4nc(C)cc4C)n3N)CSC12)c1csc(N)n1 (stereo not drawn) | µg/mL | = | 128
Cc1nnc(SCC2=C(C(=O)O)N3C(=O)[C@@H](NC(=O)Cn4cnnn4)[C@H]3SC2)s1 [Compound XII, Cefazolin, reference compound] | µg/mL | > | 128
CO/N=C(\C(=O)NC1C(=O)N2C(C(=O)O)=C(CSc3n[nH]c(-n4cccn4)n3)CSC12)c1csc(N)n1 (stereo not drawn) | µg/mL | = | 16
CC(=O)OCC1=C(C(=O)O)N2C(=O)[C@@H](NC(=O)[C@H](N)c3ccccc3)[C@H]2SC1 [Compound XI, Cephaloglycin, reference compound] | µg/mL | > | 128
CCN1CCN(C(=O)NC(C(=O)NC2C(=O)N3C(C(=O)O)=C(CSc4nnc(-n5cccn5)n4N)CS[C@H]23)c2ccc(O)cc2)C(=O)C1=O (stereo partly drawn) | µg/mL | = | 32
CO/N=C(\C(=O)NC1C(=O)N2C(C(=O)O)=C(CSc3nnc(-n4cccn4)n3N)CSC12)c1csc(N)n1 (stereo not drawn) | µg/mL | = | 64

====

System: Serratia marcens QHC77-2
Test name: In vitro MIC, agar dilution, Serratia marcens QHC77-2
Type: cell-based
Measurement context: QHC772; Serratia marcens QHC77-2; agar dilution, 35° C., 18 hours, nutrient agar; read-out: Minimal Inhibitory Concentration
Lab note: cut-off is 2 µg/mL. Strictly less in MIC is 1. Exactly 2 µg/mL or more is 0.

Compound | Label
Nn1c(SCC2=C(C(=O)O)N3C(=O)C(NC(=O)Cc4cccs4)[C@H]3SC2)nnc1-n1cccn1 (some centres unmarked) [Compound IV] | 0
CCN1CCN(C(=O)NC(C(=O)NC2C(=O)N3C(C(=O)O)=C(CSc4n[nH]c(-n5cccn5)n4)CS[C@H]23)c2ccc(O)cc2)C(=O)C1=O (some centres unmarked) [Compound VI] | 0
CO/N=C(\C(=O)NC1C(=O)N2C(C(=O)O)=C(CSc3nnc(-n4nc(C)cc4-c4ccccc4)n3N)CSC12)c1csc(N)n1 (centres unmarked) [Compound III] | 0
CO/N=C(\C(=O)NC1C(=O)N2C(C(=O)O)=C(CSc3n[nH]c(-n4cccn4)n3)CSC12)c1csc(N)n1 (centres unmarked) [Compound V] | 1
Cc1nnc(SCC2=C(C(=O)O)N3C(=O)[C@@H](NC(=O)Cn4cnnn4)[C@H]3SC2)s1 [Compound XII, Cefazolin, reference compound] | 0
N[C@@H](C(=O)NC1C(=O)N2C(C(=O)O)=C(CSc3n[nH]c(-n4cccn4)n3)CS[C@H]12)c1ccccc1.O=C(O)C(F)(F)F (some centres unmarked) [Compound IX] | 0
CCN1CCN(C(=O)NC(C(=O)NC2C(=O)N3C(C(=O)O)=C(CSc4nnc(-n5cccn5)n4N)CS[C@H]23)c2ccc(O)cc2)C(=O)C1=O (some centres unmarked) [Compound VII] | 0
CCN1CCN(C(=O)NC(C(=O)NC2C(=O)N3C(C(=O)O)=C(CSc4nnc(-n5nc(C)cc5C)n4N)CS[C@H]23)c2ccc(O)cc2)C(=O)C1=O (some centres unmarked) [Compound VIII] | 0
CC(=O)OCC1=C(C(=O)O)N2C(=O)[C@@H](NC(=O)[C@H](N)c3ccccc3)[C@H]2SC1 [Compound XI, Cephaloglycin, reference compound] | 0
CO/N=C(\C(=O)NC1C(=O)N2C(C(=O)O)=C(CSc3nnc(-n4cccn4)n3N)CSC12)c1csc(N)n1 (centres unmarked) [Compound I] | 1
